tested-target: T1, hFc-hFasL (fusion protein of human Fc fragment and human FasL extracellular region) (human, UniProt P48023 134-281)
T1 sequence: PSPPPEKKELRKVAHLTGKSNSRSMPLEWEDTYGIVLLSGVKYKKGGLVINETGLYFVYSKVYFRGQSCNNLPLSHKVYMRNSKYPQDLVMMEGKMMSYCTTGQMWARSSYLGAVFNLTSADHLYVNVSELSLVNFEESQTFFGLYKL
assay-comment: cell-based or functional assay
measured-parameter: Jurkat IC50(nM), FasL antigen-induced cell apoptosis
Write it as a number; the unit nM goes unstated.

Observe how each entry below is paired with its result.
Task: What Jurkat IC50(nM), FasL antigen-induced cell apoptosis value was documented for this binder, humFL-M88-9 (antibody, human IgG4, V domains shown, Humanized FL-M88) VH: QVQLVQSGAEVKKPGASVKVSCKGSGYTFTDYTIHWVRQAPGQGLEWMGVISTYQGDASYNQKFKGRATMTVDKSTSTAYMELSSLRSEDTAVYYCARFPDWDYAMDYWGQGTLVTVSS VL: EIVMTQSPATLSVSPGERATLSCKASQSVDYDGDSYMNWYQQKPGQAPRLLIYAASNLESGIPARFSGSGSGTEFTLTISSLQSEDFAVYYCQHSRELPYTFGQGTKLEIK ?
Result: 0.022

Task: Repeat for the following binder: humFL-M88-13 (antibody, human IgG4, V domains shown, Humanized FL-M88) VH: QVQLVQSGAEVKKPGASVKVSCKGSGYTFTDYTIHWVRQAPGQGLEWIGVISTYQGDASYNQKFKGRATMTVDKSTSTAYMELSSLRSEDTAVYYCARFPDWDYAMDYWGQGTLVTVSS VL: EIVMTQSPATLSVSPGERATLSCKASQSVDYDGDSYMNWYQQKPGQPPRLLIYAASNLESGIPARFSGSGSGTEFTLTISSLQSEDFAVYYCQQSRELPYTFGQGTKLEIK
Result: 0.0243

Task: Repeat for the following binder: humFL-M88-1 (antibody, human IgG4, V domains shown, Humanized FL-M88) VH: QVQLVQSGAEVKKPGASVKVSCKGSGYTFTDYTIHWVRQAPGQGLEWIGVISTYQGDASYNQKFKGRATMTVDKSTSTAYMELSSLRSEDTAVYYCARFPDWDYAMDYWGQGTLVTVSS VL: EIVMTQSPATLSVSPGERATLSCKASQSVDYDGDSYMNWYQQKPGQPPRLLIYAASNLESGIPARFSGSGSGTEFTLTISSLQSEDFAVYYCQHSRELPYTFGQGTKLEIK
Result: 0.0193

Task: Repeat for the following binder: humFL-M88-3 (antibody, human IgG4, V domains shown, Humanized FL-M88) VH: QVQLVQSGAEVKKPGASVKVSCKGSGYTFTDYTIHWVRQAPGQGLEWMGVISTYQGDASYNQKFKGRATMTVDKSTSTAYMELSSLRSEDTAVYYCARFPDWDYAMDYWGQGTLVTVSS VL: EIVMTQSPATLSVSPGERATLSCKASQSVDYDGDSYMNWYQQKPGQPPRLLIYAASNLESGIPARFSGSGSGTEFTLTISSLQSEDFAVYYCQHSRELPYTFGQGTKLEIK
Result: 0.0192

Task: Repeat for the following binder: humFL-M88-18 (antibody, human IgG4, V domains shown, Humanized FL-M88) VH: QVQLVQSGAEVKKPGASVKVSCKASGYTFTDYTIHWVRQAPGQGLEWMGVISTYQGDASYNQKFKGRVTMTVDTSTSTVYMELSSLRSEDTAVYYCARFPDWDYAMDYWGQGTLVTVSS VL: EIVMTQSPATLSVSPGERATLSCKASQSVDYDGDSYMNWYQQKPGQPPRLLIYAASNLESGIPARFSGSGSGTEFTLTISSLQSEDFAVYYCQQSRELPYTFGQGTKLEIK
Result: 0.0325

// next entry
Task: What Jurkat IC50(nM), FasL antigen-induced cell apoptosis value was documented for this binder, humFL-M88-4 (antibody, human IgG4, V domains shown, Humanized FL-M88) VH: QVQLVQSGAEVKKPGASVKVSCKGSGYTFTDYTIHWVRQAPGQGLEWMGVISTYQGDASYNQKFKGRVTMTVDKSTSTAYMELSSLRSEDTAVYYCARFPDWDYAMDYWGQGTLVTVSS VL: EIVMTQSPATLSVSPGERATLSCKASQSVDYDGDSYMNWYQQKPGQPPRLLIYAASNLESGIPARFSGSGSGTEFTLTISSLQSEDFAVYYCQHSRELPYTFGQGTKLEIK ?
Result: 0.0294
